Run description: Therapeutic index, ratio of CC50 for human CEM-GXR cells infected HIV1 2948 with harboring protease G48V/L90M mutant to EC50 for HIV1 2948 harboring protease G48V/L90M mutant infected in human CEM-GXR cells
Assay type: toxicity, cell-based
Reported conditions: read-out: TI
Measurement name: selectivity ratio
Answer using only a numeral; do not append any unit.

>>> meas_value("O=C(Nc1nc2ccc(C(F)(F)F)cc2s1)c1cnc(C(F)(F)F)s1")
52

Then this compound:
// selectivity ratio value for O=C(Nc1nc2c(Cl)cccc2s1)c1cnc(C(F)(F)F)s1 : 82

----------
Run description: Therapeutic index, ratio of CC50 for human CEM-GXR cells infected with wild type HIV1 97USSN54 to EC50 for wild type HIV1 97USSN54 infected in human CEM-GXR cells
Format: toxicity, cell-based
Reported conditions: read-out: TI
Overview of recorded selectivity ratio for various molecules
Respond numerically, and do not add a unit to the figure.

>>> meas_value("O=C(Nc1nc2ccc(C(F)(F)F)cc2s1)c1cnc(C(F)(F)F)s1")
68

Let us examine a further case.
Note to self: selectivity ratio recorded for O=C(Nc1nc2c(Cl)cccc2s1)c1cnc(C(F)(F)F)s1 was 100

----------
Run description: Therapeutic index, ratio of CC50 for human CEM-GXR cells infected with wild type HIV1 NL4-3 to EC50 for wild type HIV1 NL4-3 infected in human CEM-GXR cells
Assay type: toxicity, cell-based
Reported conditions: read-out: TI
Measurement name: selectivity ratio

>>> meas_value("Nc1nc(=O)n([C@@H]2CS[C@H](CO)O2)cc1F")
"> 2940"
>>> meas_value("O=C(Nc1nc2c(Cl)cccc2s1)c1cnc(C(F)(F)F)s1")
74

# next molecule below
In plain terms, O=C(Nc1nc2ccc(C(F)(F)F)cc2s1)c1cnc(C(F)(F)F)s1 has a documented selectivity ratio of 49

----------
Run description: Therapeutic index, ratio of CC50 for human CEM-GXR cells infected with HIV1 11845 harboring integrase G140S/Q148H mutant to EC50 for HIV1 11845 harboring integrase G140S/Q148H mutant infected in human CEM-GXR cells
Assay type: toxicity, cell-based
Reported conditions: read-out: TI
Measured selectivity ratio accompanies every entry in the list below.

>>> meas_value("O=C(Nc1nc2ccc(C(F)(F)F)cc2s1)c1cnc(C(F)(F)F)s1")
59

Measured selectivity ratio, O=C(Nc1nc2c(Cl)cccc2s1)c1cnc(C(F)(F)F)s1 : 101

----------
Run description: Cytotoxicity against human PBMC cells assessed as cell viability measured after 11 days by Viacount assay
Format: cell-based
Reported conditions: time 11 day
This section presents compounds with their documented CC50 at 264 h values.
Response body: numeric value in µM, unit text excluded.

>>> meas_value("O=C(Nc1nc2ccc(C(F)(F)F)cc2s1)c1cnc(C(F)(F)F)s1")
2.51

Attention now turns to another entry.
GET /value?item= O=C(Nc1nc2c(Cl)cccc2s1)c1cnc(C(F)(F)F)s1 &field=CC50 at 264 h returns 9.08

----------
The compounds listed here are annotated with their CC50 at 72 h.
Run description: Cytotoxicity against human CEM-GXR cells infected with wild type HIV1 2948 harboring protease G48V/L90M mutant assessed as cell viability measured after 72 hrs by Flow cytometry assay
Type: cell-based
Number in µM, nothing else.

>>> meas_value("O=C(Nc1nc2c(Cl)cccc2s1)c1cnc(C(F)(F)F)s1")
95.7

Turning to the following compound.
GET /value?item= O=C(Nc1nc2ccc(C(F)(F)F)cc2s1)c1cnc(C(F)(F)F)s1 &field=CC50 at 72 h returns 12.1
